biological target: RET (V804L) (Homo sapiens, UniProt P07949, V804L); construct: purchased Reaction Biology Corporation (assay run at the CRO); assay: Biochemical kinase assay (Reaction Biology, 33P ATP); details: 10 μM ATP
Sequence (P07949 29-1114 V804L): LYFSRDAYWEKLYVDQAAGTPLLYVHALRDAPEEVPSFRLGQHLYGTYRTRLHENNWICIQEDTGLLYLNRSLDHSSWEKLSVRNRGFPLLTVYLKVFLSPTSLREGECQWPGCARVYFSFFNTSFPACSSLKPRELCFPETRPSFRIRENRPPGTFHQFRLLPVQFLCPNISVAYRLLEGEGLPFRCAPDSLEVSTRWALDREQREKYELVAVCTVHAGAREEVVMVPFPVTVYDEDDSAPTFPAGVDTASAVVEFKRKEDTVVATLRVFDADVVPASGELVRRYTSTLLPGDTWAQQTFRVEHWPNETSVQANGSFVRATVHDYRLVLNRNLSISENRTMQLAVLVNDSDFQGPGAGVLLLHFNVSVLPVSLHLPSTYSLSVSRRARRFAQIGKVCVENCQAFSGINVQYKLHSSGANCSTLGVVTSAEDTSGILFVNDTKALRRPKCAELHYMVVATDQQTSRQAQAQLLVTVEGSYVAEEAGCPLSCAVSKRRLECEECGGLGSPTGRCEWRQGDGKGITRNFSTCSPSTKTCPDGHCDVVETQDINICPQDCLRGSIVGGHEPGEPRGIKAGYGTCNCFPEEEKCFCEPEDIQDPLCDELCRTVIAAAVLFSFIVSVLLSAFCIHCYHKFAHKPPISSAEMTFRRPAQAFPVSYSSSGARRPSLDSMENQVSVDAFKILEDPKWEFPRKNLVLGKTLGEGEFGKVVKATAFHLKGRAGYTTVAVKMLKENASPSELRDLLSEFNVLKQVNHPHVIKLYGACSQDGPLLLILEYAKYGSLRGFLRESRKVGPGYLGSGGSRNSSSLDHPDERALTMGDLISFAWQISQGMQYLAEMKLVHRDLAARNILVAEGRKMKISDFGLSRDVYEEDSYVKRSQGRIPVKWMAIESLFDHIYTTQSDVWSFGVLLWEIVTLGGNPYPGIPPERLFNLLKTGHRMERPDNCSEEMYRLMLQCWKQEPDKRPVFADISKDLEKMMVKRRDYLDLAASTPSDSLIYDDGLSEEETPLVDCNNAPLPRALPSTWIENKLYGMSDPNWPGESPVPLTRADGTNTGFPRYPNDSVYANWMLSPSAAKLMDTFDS
Give measured IC50 for each item. Keep answers brief.
Form entry: value (nM) — number only.

Need IC50, item C[C@H]1CNC(=O)c2cnn3cc4c(nc23)N(Cc2cc(F)ccc2O1)[C@@H]1CCC[C@@H]1O4 [Compound 1]
10

Another molecule to look at: C[C@H]1CNC(=O)c2cnn3cc4c(nc23)N(Cc2cc(F)cnc2O1)[C@@H]1CCC[C@@H]1O4 [Compound 5]
2350

====

target: BaF3 KIF5B-RET (Homo sapiens, UniProt P07949); construct: fused on or other part: P33176 (Kinesin-1 heavy chain); test: Cell proliferation assay (CellTiter-Glo, 72 hours); assay type: cell-based; conditions: anti-cell proliferation, read-out: BaF3 KIF5B-RET IC50
Sequence (P07949 whole entry, change not shown, the tested form may be a part): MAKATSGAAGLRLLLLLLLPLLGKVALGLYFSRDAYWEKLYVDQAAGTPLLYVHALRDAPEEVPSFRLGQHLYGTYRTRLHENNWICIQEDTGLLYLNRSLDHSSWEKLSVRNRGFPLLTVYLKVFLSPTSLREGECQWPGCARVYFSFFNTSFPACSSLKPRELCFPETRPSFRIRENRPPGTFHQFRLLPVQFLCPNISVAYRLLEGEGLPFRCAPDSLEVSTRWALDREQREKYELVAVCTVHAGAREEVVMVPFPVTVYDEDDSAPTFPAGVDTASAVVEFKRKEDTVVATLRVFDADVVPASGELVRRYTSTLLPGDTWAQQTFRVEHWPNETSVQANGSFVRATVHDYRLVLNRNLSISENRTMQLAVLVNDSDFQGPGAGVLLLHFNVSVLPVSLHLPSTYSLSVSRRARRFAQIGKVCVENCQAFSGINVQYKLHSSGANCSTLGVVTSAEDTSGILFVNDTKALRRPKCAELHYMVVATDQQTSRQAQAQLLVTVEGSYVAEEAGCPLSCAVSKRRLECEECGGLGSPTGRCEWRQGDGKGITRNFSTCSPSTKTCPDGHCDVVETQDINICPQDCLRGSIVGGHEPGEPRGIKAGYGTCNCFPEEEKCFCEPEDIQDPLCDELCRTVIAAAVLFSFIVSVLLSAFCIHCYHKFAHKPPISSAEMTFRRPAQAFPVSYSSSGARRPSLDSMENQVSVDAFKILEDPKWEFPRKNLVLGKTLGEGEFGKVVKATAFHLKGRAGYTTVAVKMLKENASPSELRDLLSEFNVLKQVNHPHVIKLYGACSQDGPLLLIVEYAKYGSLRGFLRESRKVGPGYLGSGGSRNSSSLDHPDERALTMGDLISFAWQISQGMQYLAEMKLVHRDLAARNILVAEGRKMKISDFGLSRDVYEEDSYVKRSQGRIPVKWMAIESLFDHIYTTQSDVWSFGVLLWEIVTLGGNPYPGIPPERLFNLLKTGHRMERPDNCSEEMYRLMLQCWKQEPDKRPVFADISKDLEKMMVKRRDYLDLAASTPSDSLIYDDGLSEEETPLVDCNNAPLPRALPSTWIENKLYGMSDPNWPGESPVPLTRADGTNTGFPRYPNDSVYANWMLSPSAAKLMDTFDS
Provide the reported GI50 of each item.
Give the quantity in µM, number only.

# lookup: GI50 of "O=C1NC[C@@H](CO)Oc2ncc(F)cc2CN2c3nc4c1cnn4cc3O[C@H]1CCC[C@H]12"
0.397

Ok, now "C[C@H]1CNC(=O)c2cnn3cc4c(nc23)N(Cc2cc(F)cnc2O1)[C@@H]1CCC[C@@H]1O4"
0.0024

Then what about the molecule "C[C@@H]1COc2ncc(F)cc2CN2c3nc4c(cnn4cc3O[C@H]3CC[C@H]32)C(=O)N1" ?
0.274

Same for CC1CNC(=O)c2cnn3cc4c(nc23)N(Cc2cc(F)cnc2OC1)[C@@H]1CCC[C@@H]1O4 (stereo partly drawn)
0.0003

Subsequent entry: "C[C@@H]1COc2ncc(F)cc2CN2c3nc4c(cnn4cc3O[C@H]3CCC[C@H]32)C(=O)N1"
0.0002

What do we get for "O=C1NC[C@@H](O)COc2ncc(F)cc2CN2c3nc4c1cnn4cc3O[C@H]1CCC[C@H]12" ?
0.0689

Follow-up item: "O=C1NC2(COc3ncc(F)cc3CN3c4nc5c1cnn5cc4O[C@H]1CCC[C@H]13)CC(F)(F)C2"
0.193

Same question for "O=C1NCCCOc2ncc(F)cc2CN2c3nc4c1cnn4cc3O[C@H]1CCC[C@H]12" please.
0.0052

Next molecule: "C[C@H]1CNC(=O)c2cnn3cc4c(nc23)N(Cc2cc(F)cnc2O1)[C@@H]1CC[C@@H]1O4"
0.342

Same lookup for "O=C1NC2(CC2)COc2ncc(F)cc2CN2c3nc4c1cnn4cc3O[C@H]1CCC[C@H]12" , please.
0.0071

And "C[C@@H]1COc2ncc(F)cc2CN2c3nc4c(cnn4cc3O[C@@H]3CC[C@@H]32)C(=O)N1" ?
0.839

Request: "C[C@H]1CNC(=O)c2cnn3cc4c(nc23)N(Cc2cc(F)cnc2O1)[C@H]1CC[C@H]1O4"
2.36

Also, "O=C1N[C@H](C2CC2)COc2ncc(F)cc2CN2c3nc4c1cnn4cc3O[C@H]1CCC[C@H]12" please.
0.12

Same for "C[C@H]1CNC(=O)c2cnn3cc4c(nc23)N(Cc2cc(F)cnc2O1)[C@H]1COC[C@H]1O4"
4

Again, but for "C[C@@H]1CCOc2ncc(F)cc2CN2c3nc4c(cnn4cc3O[C@H]3CCC[C@H]32)C(=O)N1"
0.0166

Now give it for "O=C1NC[C@@H](F)COc2ncc(F)cc2CN2c3nc4c1cnn4cc3O[C@H]1CCC[C@H]12" too.
0.0102

Field entry: "C[C@@H]1CCNC(=O)c2cnn3cc4c(nc23)N(Cc2cc(F)cnc2O1)[C@@H]1CCC[C@@H]1O4"
0.0088

Could you do the same for "O=C1NCC2(CC2)COc2ncc(F)cc2CN2c3nc4c1cnn4cc3O[C@H]1CCC[C@H]12" , please?
0.0011

What do you have for "C[C@H]1CNC(=O)c2cnn3cc4c(nc23)N(Cc2cc(F)cnc2O1)[C@@H]1COC[C@@H]1O4" ?
0.162

// next record "C[C@H]1CNC(=O)c2cnn3cc4c(nc23)N(Cc2cc(F)cnc2OC1)[C@@H]1CCC[C@@H]1O4"
0.0018

Quick one: "CC1(C)CCOc2ncc(F)cc2CN2c3nc4c(cnn4cc3O[C@H]3CCC[C@H]32)C(=O)N1"
0.0622

What about this molecule? "O=C1NCC(O)(O)COc2ncc(F)cc2CN2c3nc4c1cnn4cc3O[C@H]1CCC[C@H]12"
0.198

Also "O=C1NC2(CCC2)CCOc2ncc(F)cc2CN2c3nc4c1cnn4cc3O[C@H]1CCC[C@H]12" ?
0.526

Item: "C[C@@H]1COc2ncc(F)cc2CN2c3nc4c(cnn4cc3O[C@H]3CCCC[C@H]32)C(=O)N1"
0.342

Check "C[C@H]1CNC(=O)c2cnn3cc4c(nc23)N(Cc2cc(F)cnc2O1)[C@@H]1CCCC[C@@H]1O4" too.
0.101

Check "O=C1NCC2(CCC2)COc2ncc(F)cc2CN2c3nc4c1cnn4cc3O[C@H]1CCC[C@H]12" too.
0.0989
